Provide the reported plant injury rating, Hese of each item.
Tested on: Hese
Assay: plant injury after spraying emerged plants (Table D)
Type: in vivo
Parameters: scale not given here
Settings: 0.0701 kg/ha
Give the figure by itself; no unit, no explanation.

QUERY: Would you mind telling me what plant injury rating, Hese value was observed for `COC(=O)c1c(OC)nc(C(F)(F)F)c(C2SCCS2)c1CC(C)C` ?
RESULT: 1

QUERY: Would you mind telling me what plant injury rating, Hese value was observed for `COC(=O)c1c(OC)nc(C(F)(F)F)c(C(=O)n2cccn2)c1CC1CC1` ?
RESULT: 1

QUERY: Would you mind telling me what plant injury rating, Hese value was observed for `COC(=O)c1c(O)nc(C(F)(F)F)c(C(=O)OC)c1CC(C)C` ?
RESULT: 1

QUERY: Would you mind telling me what plant injury rating, Hese value was observed for `COC(=O)c1c(OC)nc(C(F)(F)F)c(C2=NCCCS2)c1CC(C)C` ?
RESULT: 1

QUERY: Would you mind telling me what plant injury rating, Hese value was observed for `COC(=O)c1c(OC)nc(C(F)(F)F)c(C2=NCCS2)c1CC(C)C` ?
RESULT: 2

QUERY: Would you mind telling me what plant injury rating, Hese value was observed for `COC(=O)c1c(OC)nc(C(F)(F)F)c(C(=O)NCCCBr)c1CC(C)C` ?
RESULT: 0

QUERY: Would you mind telling me what plant injury rating, Hese value was observed for `COC(=O)c1c(OC)nc(C(F)(F)F)c(-c2nnc(C)o2)c1CC(C)C` ?
RESULT: 0

# credit: patent US5391540A
